Test system: CD2F1 mice, L1210 leukemia ip, survival T/C
Test: NCI In Vivo Anticancer Drug Screen. Data for tumor model L1210 Leukemia (intraperitoneal) in CD2F1 (CDF1) mice
Settings: endpoint: mean survival time; dose: 100.0 mg/kg/injection; schedule: Q01DX009 (ip); vehicle: saline; higher = longer survival
Experimental: The antitumor activity of compounds was measured in mice bearing transplantable tumors. Survival or tumor size were measured and the results are expressed as the measurement made in the treated group (T) divided by the measurement made in the vehicle treated control group (C). The tumor model used in this assay is L1210 Leukemia (intraperitoneal) in CD2F1 (CDF1) mice
Inconclusive results and toxic doses are left out.
observed.property: T/C

CC(=O)C1C(=O)C(=O)OC1C (centres undefined)    98 % of control
CCSCCCC(=O)O    101 % of control
O=Cc1c[nH]c2ccc(Br)cc12    105 % of control
C[C@H](N)C(=O)N[C@@H]1[C@H]2C(=C(O)C[C@@H](O)[C@@H]2O)C(=O)O[C@@H]1C    118 % of control
O=C(C(=O)c1ccccc1)c1ccccc1    100 % of control

Request: Determine its reported T/C: O=C(c1ccccc1Cl)c1cccc2ccccc12
Result: 110 % of control

Request: Determine its reported T/C: O=C(c1ccc(O)cc1O)c1ccc(O)cc1O
Result: 96 % of control

Request: Determine its reported T/C: C#CCC(O)CC (centres undefined)
Result: 107 % of control

The values you see were collected from PubChem BioAssay AID256.
